# ELISA OD450 annotations
- experimental target: Human ROR2 (human, UniProt Q01974)
- Sequence (Q01974 34-403 limits assumed): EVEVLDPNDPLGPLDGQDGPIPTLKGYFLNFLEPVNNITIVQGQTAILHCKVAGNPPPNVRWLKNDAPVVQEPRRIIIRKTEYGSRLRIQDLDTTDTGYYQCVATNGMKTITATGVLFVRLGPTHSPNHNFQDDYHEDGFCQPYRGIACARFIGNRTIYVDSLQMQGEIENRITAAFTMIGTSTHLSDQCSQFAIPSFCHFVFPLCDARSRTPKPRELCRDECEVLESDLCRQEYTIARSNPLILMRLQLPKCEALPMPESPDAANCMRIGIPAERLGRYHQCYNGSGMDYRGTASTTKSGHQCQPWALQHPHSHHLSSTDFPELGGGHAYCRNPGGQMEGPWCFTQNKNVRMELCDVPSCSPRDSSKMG
- measurement protocol: ELISA, direct coat; BCC supernatant
Write it as a number; the unit OD450 goes unstated.

Field: example entries. Status: answers known.
binder	unit name	experimental value
226E12 (antibody, V domains shown, chimeric counterpart m2; also called rabbit IgG of BCC well 226E12) VH: QSLEESGGRLVTPGTPLTLTCTASEFSLSNYYMSWVRQAPGEGLEWIGAINADSDNTWYPSWVKGRFTISKTSSTTVDLKITSPTIEDTATYFCARSVSNNFAEYNIWGPGTLVTVSS VL: AYDMTQTPSSVSAAVGGTVTIKCQASQRIYSYLAWYQQKPGQPPKLLIYRASTLASGVPSRFKGSGSGTEYTLTISDLECADAATYYCQQGASMVDVENMFGGGTEVVVK	OD450	0.09
338H4 (antibody, V domains shown, chimeric counterpart m8; also called rabbit IgG of BCC well 338H4) VH: QSVEESGGRLVTPGTPLTLTCTVSGFSLSSYAMSWVRQAPGRGLEWIGIIYASGSTYYASWAKGRFTISKTSTTVDLKITSPTTEDTATYFCARIYDGMDLWGPGTLVTVSS VL: DIVMTQTPASVSAAVGGTVTINCQASQNIYSYLSWYQQKPGQPPKRLIYLASTLASGVPSRFKSSGSGTEYTLTISDLECDDAATYYCQSNYNGNYGFGGGTEVEVK	OD450	0.17
324C7 (antibody, V domains shown, chimeric counterpart m4; also called rabbit IgG of BCC well 324C7) VH: QSVEESGGRLVTPGTPLTLTCTVSGFSLSGAGVSWVRQAPGKGLEWIGYIDSGATTYYASWAKGRFTISKASTTVDLKIASPTTEDTATYFCARGYYGMDPWGQGTLVTVSS VL: DIVMTQTPASVEVAVGGTVTIKCQASQNIGSDLAWYQQKPGQPPKLLIYTTSNLASGVPSRFKGSGSGTGFTLTISDLECADAASYCCQGGYFSGRNIYGNAFGGGTEVVVK	OD450	0.18
323H7 (antibody, V domains shown, chimeric counterpart m3; also called rabbit IgG of BCC well 323H7) VH: QEQLKESGGGLVTPGGTLTLTCTASGFTISRYHMTWVRQAPGKGLEWIGHIYVNNDDTDYASWAKGRFTISKTSTTVDLKITSPTTEDTATYFCARLDVGGGGAYIGDIWGQGTLVTVSS VL: QAVVTQTPSSVSAAVGGTVTISCQSSQSVYNNNDLAWYQQKPGQPPKLLIYYASTLASGVSSRFKGSGSGTQFTLAISDLECDDSATYYCAGGYDTDGLDTFAFGGGTEVEVK	OD450	0.18
324C6 (antibody, V domains shown, chimeric counterpart m7; also called rabbit IgG of BCC well 324C6) VH: QSLEESGGRLVTPGTPLTLTCTASGFSLSRYYMTWVRQAPGKGLEWIGTIYTSGSTWYASWTKGRFTISKTSTTVDLKITSPTTEDTATYFCARSYYGGDKTGLGIWGPGTLVTVSS VL: DVVMTQTPASVEAAVGGTVTIKCQASQSIDSWLSWYQQKPGQPPKLLIYQASTLASGVSSRFKGSGSGTEFTLTISDLECADAATYYCQCAYGVSGTSSYLYTFGGGTEVEVK	OD450	0.17

(Q) I am curious: what ELISA OD450 value has been reported for 330F11 (antibody, V domains shown, chimeric counterpart m9; also called rabbit IgG of BCC well 330F11) VH: QSVEESGGRLVTPGTPLTLTCTVSGFSLNNYWMSWVRQAPGEGLEWIGTISSGAYTWFATWATGRFTISKTSTTVDLSITSPTTEDTATYFCARYSSTTDWTYFNIWGPGTLVTVSS VL: DVVMTQTPASVEAAVGGTVTIKCQASQSINNYLAWYQQKPGQPPKLLIYRASTLESGVPSRFKGSGSGTQFTLTISDLECADAATYYCQSYNGVGRTAFGGGTEVEFK ?
(A) 0.25
